The following compounds are shown together with reported Population Mitotic Cells (%) values.
# System: HEK-293T
# experiment: Multiplex assay against HEK293T
# Format: toxicity, cell-based
# particulars: human, 12 h, 10 µM, compound concentration 10 uM, replicate 1
Quick reminder: number only, in %, skip the unit.

c1ccc2oc(-c3csc(C4CCN(Cc5nc6ncccc6[nH]5)CC4)n3)cc2c1: 82
Cl.Cl.NC1(c2ccc(-c3nc4ccn5c(=O)[nH]nc5c4cc3-c3ccccc3)cc2)CCC1: 68
Nc1ccc(C(=O)Nc2cccc(-c3nc(N4CCOCC4)c4oc5ncccc5c4n3)c2)cn1: 16
CNC(=O)c1cc(Oc2ccc(NC(=O)Nc3cc(C(C)(C)C)nn3-c3ccc4ncccc4c3)c(F)c2)ccn1 [REBASTINIB]: 70

Problem: Notebook entry, HEK-293T assay: Population Mitotic Cells (%) of CCCn1c(=O)c2[nH]c(C34CC5CC(CC3C5)C4)nc2n(CCC)c1=O [ROLOFYLLINE] = ?
Solution: 21

Problem: Please answer likewise for CN(C)CCOc1ccc(-c2nc(-c3ccncc3)c(-c3ccc4c(c3)CC/C4=N\O)[nH]2)cc1 [SB590885]
Solution: 71

Problem: Could you do the same for `CC(=O)c1cc(-c2cc(C(=O)NC3CC3)ccc2C)c2ncccn12` , please?
Solution: 49

Problem: Also check `Cc1cn(-c2cc(NC(=O)c3ccc4c(c3)CN(c3cncnc3)C[C@@H]4C)cc(C(F)(F)F)c2)cn1`
Solution: 82

Problem: Next up: `CCOc1cc(N2CCC(O)CC2)ccc1Nc1ncc2c(n1)N(C1CCCC1)CCC(=O)N2C`
Solution: 85

###

Property: Population Apoptotic (%); scope: individual compounds
# Tested on: Fibroblast
# experiment: Multiplex assay against human fibroblast
# Format: toxicity, cell-based
# particulars: 24 h, 10 µM, compound concentration 10 uM, replicate 1
Expressed in %, but write only the number.

CCOc1cc(N2CCC(O)CC2)ccc1Nc1ncc2c(n1)N(C1CCCC1)CCC(=O)N2C: 67

Problem: Would you kindly share the measured Population Apoptotic (%) for `Cl.Cl.NC1(c2ccc(-c3nc4ccn5c(=O)[nH]nc5c4cc3-c3ccccc3)cc2)CCC1` ?
Solution: 24

Problem: Item: `CCCn1c(=O)c2[nH]c(C34CC5CC(CC3C5)C4)nc2n(CCC)c1=O`
Solution: 36

###

# Test system: Fibroblast
# experiment: Multiplex assay against human fibroblast
# Format: toxicity, cell-based
# particulars: 24 h, 10 µM, compound concentration 10 uM, replicate 2
readout_label: Population Hoechst High Intensity Objects (%)
# value in %; strip the unit string

Field: example entries. Status: answers known.
CNC(=O)c1cc(Oc2ccc(NC(=O)Nc3cc(C(C)(C)C)nn3-c3ccc4ncccc4c3)c(F)c2)ccn1: 33
CCc1cc2c(cc1CC)CC(NC[C@H](O)c1ccc(O)c3[nH]c(=O)ccc13)C2: 6
COc1ccc(NS(=O)(=O)c2sc3ccc(Cl)cc3c2C)cc1N1CCNCC1.Cl: 2

Then this molecule:
Problem: Param readout= Population Hoechst High Intensity Objects (%); system= Fibroblast; entry= `CCCn1c(=O)c2[nH]c(C34CC5CC(CC3C5)C4)nc2n(CCC)c1=O` ; returns value.
Solution: 5

###

# System: Fibroblast
# experiment: Multiplex assay against human fibroblast
# Format: toxicity, cell-based
# particulars: 12 h, 10 µM, compound concentration 10 uM, replicate 2
readout_label: Population Normal (%)
Write the answer as a number in %, unit excluded.

Solved entries:
CC(C)N1CCC(C)(C)c2cc(C#Cc3ccc(C(=O)O)cc3)ccc21: 28
CC(=O)c1cc(-c2cc(C(=O)NC3CC3)ccc2C)c2ncccn12: 95
COc1cc2c(Nc3ccc(NC(=O)c4ccccc4)cc3)ncnc2cc1OCCCN1CCOCC1: 58
CN(C)CCOc1ccc(-c2nc(-c3ccncc3)c(-c3ccc4c(c3)CC/C4=N\O)[nH]2)cc1 [SB590885]: 49

Problem: Need Population Normal (%), item CC(C)(C)c1cnc(CSc2cnc(NC(=O)C3CCNCC3)s2)o1 [BMS-387032]
Solution: 73

###

# System: HEK-293T
# experiment: Multiplex assay against HEK293T
# Format: toxicity, cell-based
# particulars: human, 48 h, 10 µM, compound concentration 10 uM, replicate 2
readout_label: Population Mitochondria Different-Phenotype (%)
Write down the numeric answer in % and omit the unit.

Reference set (6 entries):
O=C(O)c1ccc2cc(-c3ccc(O)c(C45CC6CC(CC(C6)C4)C5)c3)ccc2c1: 2
CCC(=O)O[C@]1(C(=O)SCF)[C@H](C)C[C@H]2[C@@H]3C[C@H](F)C4=CC(=O)C=C[C@]4(C)[C@@]3(F)[C@@H](O)C[C@@]21C [FLUTICASONE PROPIONATE]: 22
CC(C)N1CCC(C)(C)c2cc(C#Cc3ccc(C(=O)O)cc3)ccc21: 1
COc1ccc(NS(=O)(=O)c2sc3ccc(Cl)cc3c2C)cc1N1CCNCC1.Cl: 95
Cc1cc2c(cc1N1C(=O)c3cccc4c(CCCO)ccc(c34)C1=O)n(C)c(=O)n2C: 41
Nc1ccc(C(=O)Nc2cccc(-c3nc(N4CCOCC4)c4oc5ncccc5c4n3)c2)cn1: 84

Problem: Write down the reported Population Mitochondria Different-Phenotype (%) of `CCc1cc2c(cc1CC)CC(NC[C@H](O)c1ccc(O)c3[nH]c(=O)ccc13)C2` , test system: HEK-293T.
Solution: 96

Problem: How about this compound: `Nc1nc2c(c(N3CCNCC3)n1)CCC1=C2[C@@H]2CCCC[C@@H]2O1`
Solution: 90

###

# Test system: U2OS
# experiment: Multiplex assay against U2OS
# Assay type: toxicity, cell-based
# particulars: human, 48 h, 10 µM, compound concentration 10 uM, replicate 1
Population Normal (%) values for the compounds below.
Dear colleague, please return just the value in %, with no unit written.

CCC(=O)O[C@]1(C(=O)SCF)[C@H](C)C[C@H]2[C@@H]3C[C@H](F)C4=CC(=O)C=C[C@]4(C)[C@@]3(F)[C@@H](O)C[C@@]21C [FLUTICASONE PROPIONATE]: 93
CCCn1c(=O)c2[nH]c(C34CC5CC(CC3C5)C4)nc2n(CCC)c1=O: 87
CC(=O)c1cc(-c2cc(C(=O)NC3CC3)ccc2C)c2ncccn12: 92

Problem: Return reported Population Normal (%); argument: `C1=N/C2=N/c3ccc(OCCN4CCCC4)c(c3)COC/C=C\COCc3cccc(c3)C(=C1)N2`
Solution: 83

###

# Tested on: Fibroblast
# experiment: Multiplex assay against human fibroblast
# Type: toxicity, cell-based
# particulars: 24 h, 10 µM, compound concentration 10 uM, replicate 2
readout_label: Population Fragmented Nuclei (%)
Your answer should be a number followed by the unit of measure.

The cases that follow already have their Population Fragmented Nuclei (%) on record.
O=C(O)c1ccc2cc(-c3ccc(O)c(C45CC6CC(CC(C6)C4)C5)c3)ccc2c1 [O-DEMETHYLATED ADAPALENE]: 14%
Nc1ccc(C(=O)Nc2cccc(-c3nc(N4CCOCC4)c4oc5ncccc5c4n3)c2)cn1: 60%
CC(=O)c1cc(-c2cc(C(=O)NC3CC3)ccc2C)c2ncccn12: 11%

Let us move to another entry and its Population Fragmented Nuclei (%).
Problem: I would be grateful if you could share the reported Population Fragmented Nuclei (%) for `COc1cc2c(NC3CCN(C(C)C)CC3)nc(N3CCC(F)(F)CC3)nc2cc1OCCCN1CCCC1` .
Solution: 18%

###

# System: HEK-293T
# experiment: Multiplex assay against HEK293T
# Format: toxicity, cell-based
# particulars: human, 12 h, 1 µM, compound concentration 1 uM, replicate 2
Population Pyknosed Nuclei (%) reference
The answer is to be given in %; state only the numeric part.

The following compounds have reported results that may help.
CCOc1cc2ncc(C#N)c(Nc3ccc(OCc4cccc(F)c4)c(Cl)c3)c2cc1NC(=O)/C=C/CN(C)C: 5
CN(C)CCOc1ccc(-c2nc(-c3ccncc3)c(-c3ccc4c(c3)CC/C4=N\O)[nH]2)cc1: 8
CC(C)(C)c1cnc(CSc2cnc(NC(=O)C3CCNCC3)s2)o1: 10
Cc1nc(Cc2cccc(C(F)(F)F)c2)sc1-c1ccc(C(N)=O)nc1 [TP-024n]: 50
CNC(=O)c1nn(C)c2c1C(C)(C)Cc1cnc(Nc3ccc(N4CCN(C)CC4)cc3)nc1-2: 14
CC(C)Oc1ccc(C(=O)N[C@H](CNC(=O)CN(C)C)Cc2ccc(-c3cn4cccc([C@H](C)O)c4n3)cc2)cc1Cl [GSK-923295A]: 24
CCCn1c(=O)c2[nH]c(C34CC5CC(CC3C5)C4)nc2n(CCC)c1=O: 50
COc1ccc(NS(=O)(=O)c2sc3ccc(Cl)cc3c2C)cc1N1CCNCC1.Cl: 53

Problem: // Population Pyknosed Nuclei (%) lookup, key: `COc1cc2c(Nc3ccc(NC(=O)c4ccccc4)cc3)ncnc2cc1OCCCN1CCOCC1`
Solution: 12

Problem: What do you have for `Nc1nc2c(c(N3CCNCC3)n1)CCC1=C2[C@@H]2CCCC[C@@H]2O1` ?
Solution: 53
